- Subject Of Test: UniProt:Q72874
- Assay: Inhibitory concentration against human immunodeficiency virus type 1(HIV-1) protease at pH 4.7
Known log10 IC50 of a selection of compounds
Property Measured: log10 IC50 (log10 of the value in nM)

# Compound, Subject Of Test, log10 IC50
data = [
    ("CC(C)(C)c1cc2c(cc1SC1=C(O)OC(CCc3ccccc3)(c3ccccc3)CC1=O)CCC2 (stereo unspecified)", "UniProt:Q72874", 0.95),
    ("CC(C)(C)n1c(SC2=C(O)OC(CCc3ccccc3)(c3ccccc3)CC2=O)nc2ccccc21 (stereo unspecified)", "UniProt:Q72874", 2.70),
    ("O=C1CC(CCc2ccccc2)(c2ccccc2)OC(O)=C1Sc1cc2ccccc2s1 (stereo unspecified)", "UniProt:Q72874", 2.56),
    ("CCc1c(SC2=C(O)OC(CCc3ccccc3)(c3ccccc3)CC2=O)sc2ccccc12 (stereo unspecified)", "UniProt:Q72874", 1.45),
    ("CC(C)(C)c1cc2c(cc1SC1=C(O)OC(CCc3ccccc3)(c3ccccc3)CC1=O)CCCC2 (stereo unspecified)", "UniProt:Q72874", 1.45),
    ("Cc1c(SC2=C(O)OC(CCc3ccccc3)(c3ccccc3)CC2=O)sc2ccccc12 (stereo unspecified)", "UniProt:Q72874", 1.87),
    ("O=C1CC(CCc2ccccc2)(c2ccccc2)OC(O)=C1Sc1cccs1 (stereo unspecified)", "UniProt:Q72874", 2.46),
    ("CC(C)(C)c1oc2ccccc2c1SC1=C(O)OC(CCc2ccccc2)(c2ccccc2)CC1=O (stereo unspecified)", "UniProt:Q72874", 1.26),
    ("Cc1ccsc1SC1=C(O)OC(CCc2ccccc2)(c2ccccc2)CC1=O (stereo unspecified)", "UniProt:Q72874", 2.29),
    ("CC(C)(C)c1c(SC2=C(O)OC(CCc3ccccc3)(c3ccccc3)CC2=O)sc2ccccc12 (stereo unspecified)", "UniProt:Q72874", 0.85),
    ("CC(C)(C)c1c(SC2=C(O)OC(CCc3ccccc3)(c3ccccc3)CC2=O)oc2ccccc12 (stereo unspecified)", "UniProt:Q72874", 1.04),
]

Just for reference, ChEMBL document CHEMBL1131797 is where these values come from.
